property.label: melting point

Could you please provide reported melting point for CC(C)=CCc1c(C)cc(O)cc1C ? Thanks!
64 to 65 °C

Could you please provide reported melting point for COc1cc(OC)c(OC)cc1C=CC=O ? Thanks!
140 °C

Could you please provide reported melting point for Clc1ccc2c(c1)C(n1ccnc1)c1ccccc1CS2 (stereo not given) ? Thanks!
175 to 176 °C

Could you please provide reported melting point for CCCCCC(=O)O[C@H]1C[C@H](O)C=C2C=C[C@H](C)[C@H](CC[C@@H]3C[C@@H](O)CC(=O)O3)[C@H]21 ? Thanks!
138 to 139 °C

====

Reported melting point by item:

Study these solved cases before continuing.
• Cc1cc(C(N)=O)c(N)s1 = 140 to 141 °C
• Cc1nccn1CCCCC(=O)NCc1ccc(Cl)cc1 = 72 to 75 °C
• CCC12CCC3C4CCC(=O)C=C4CCC3C1CCC2OCCN(C)C (centres undefined) = 87 to 88 °C
• COC(=O)c1c(-c2ccc(C#N)cc2)cn(-c2ccc(Br)cc2)c1C(=O)OC = 178 to 180 °C
• CNc1cccc(OCc2ccccc2)c1N = 79 to 81 °C

Could you please provide reported melting point for CN(Cc1cccc2c1C(=O)N(C1CCC(=O)NC1=O)C2=O)C(=O)NC1CCCCC1 (centres undefined) ? Thanks!
243 to 245 °C

Could you please provide reported melting point for CNC(=O)c1ccncc1I ? Thanks!
132 to 133 °C

Could you please provide reported melting point for FC(F)(F)c1cccc(CSc2nnc(-c3ncnc4[nH]ccc34)o2)c1 ? Thanks!
199 to 200 °C

Could you please provide reported melting point for CC(Cc1c[nH]c2ccccc12)(NC(=O)OCC1c2ccccc2-c2ccccc21)C(=O)NC(CO)Cc1ccccc1 (centres undefined) ? Thanks!
89 to 93 °C

Could you please provide reported melting point for CN(C)CCCCNC(=O)c1cnc2c(c1)N(Cc1cc(Cl)ccc1C(F)(F)F)CCN2 ? Thanks!
182 °C

Could you please provide reported melting point for CCOC(=O)c1cn(C)nc1Cl ? Thanks!
65 to 66 °C

Could you please provide reported melting point for N#Cc1ccc(N2C(=O)C=C(O)C2Cc2ccccc2)cc1Cl (centres undefined) ? Thanks!
188 to 189 °C

Could you please provide reported melting point for CCCc1nc2c(N)nc3cc(OCCN(CCOc4ccc5c(c4)nc(N)c4nc(CCC)sc45)C(N)=O)ccc3c2s1 ? Thanks!
213 to 216 °C

Could you please provide reported melting point for CC(C)Oc1nc2cc(-n3ccc(=O)cc3)c([N+](=O)[O-])cc2nc1OC(C)C ? Thanks!
217 to 219 °C

Could you please provide reported melting point for O=C(O)C1CCCN1S(=O)(=O)c1ccc(F)cc1 (centres undefined) ? Thanks!
145 to 148 °C

Could you please provide reported melting point for CC(C)C(NC(=O)OCc1nccs1)C(=O)NC(Cc1ccccc1)C(O)C(Cc1ccccc1)NC(=O)C(NC(=O)OCc1nccs1)C(C)C (centres undefined) ? Thanks!
92 to 93 °C

Could you please provide reported melting point for CCOC(=O)C1CCNC(=O)C1=NCCc1ccccc1 (centres undefined) ? Thanks!
99 to 100 °C

Could you please provide reported melting point for CC1c2c(Cl)cccc2N=C2NC(=O)CN21 (centres undefined) ? Thanks!
252 °C

Could you please provide reported melting point for CC(Oc1cnn(-c2ccc(Cl)cc2)c(=O)c1Cl)c1ccc(Cl)cc1 (centres undefined) ? Thanks!
135 to 138 °C
